Provenance of the data: patent US9725459B2

# study.target: human cathepsin S (CatS) (Homo sapiens (Human))
# Sequence (P25774 115-331): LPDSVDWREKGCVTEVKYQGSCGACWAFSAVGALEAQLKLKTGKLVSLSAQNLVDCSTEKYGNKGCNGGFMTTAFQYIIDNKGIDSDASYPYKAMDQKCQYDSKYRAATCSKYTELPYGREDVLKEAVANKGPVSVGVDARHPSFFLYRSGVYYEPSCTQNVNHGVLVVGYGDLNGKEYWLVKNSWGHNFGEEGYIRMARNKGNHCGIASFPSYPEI
# assay.remarks: CatS functional enzyme assay
# Type: biochemical
# applied.conditions: ratio Ki(hCatS)/Ki(hCatK)
measurement.name: Selectivity Ki(hCatS)/Ki(hCatK)
Lab note: record just the number, no unit beside it.

Asked: Which Selectivity Ki(hCatS)/Ki(hCatK) reading was recorded for the compound O=C(N[C@H](C(=O)N1C[C@H](Cl)[C@H]2OCC(=O)[C@H]21)C1CCCCC1)c1ccc(-c2ccncc2F)s1 [Example 31] ?
Given back: 88.0

Asked: Which Selectivity Ki(hCatS)/Ki(hCatK) reading was recorded for the compound C[S+]([O-])c1cnnc(-c2ccc(C(=O)N[C@H](C(=O)N3C[C@H](Cl)[C@H]4OCC(=O)[C@H]43)C3CCCCC3)s2)c1 (stereo partly drawn) [Example 76] ?
Given back: 1.0

Asked: Which Selectivity Ki(hCatS)/Ki(hCatK) reading was recorded for the compound O=C(N[C@H](C(=O)N1C[C@H](Cl)[C@H]2OCC(=O)[C@H]21)C1CCCCC1)c1ncc(-c2ccc(C(F)(F)F)nc2)s1 [Example 68] ?
Given back: 5.9

Asked: Which Selectivity Ki(hCatS)/Ki(hCatK) reading was recorded for the compound O=C(N[C@H](C(=O)N1C[C@H](Cl)[C@H]2OCC(=O)[C@H]21)C1CCCCC1)c1ncc(-c2ccnnc2)s1 [Example 18] ?
Given back: 1.2

Asked: Which Selectivity Ki(hCatS)/Ki(hCatK) reading was recorded for the compound Cc1nnccc1-c1ccc(C(=O)N[C@H](C(=O)N2C[C@H](Cl)[C@H]3OCC(=O)[C@H]32)C2CCCCC2)s1 [Example 58] ?
Given back: 1.5

Asked: Which Selectivity Ki(hCatS)/Ki(hCatK) reading was recorded for the compound CCc1cc(-c2ccc(C(=O)N[C@H](C(=O)N3C[C@H](Cl)[C@H]4OCC(=O)[C@H]43)C3CCCCC3)s2)ccn1 [Example 86] ?
Given back: 16.7

Asked: Which Selectivity Ki(hCatS)/Ki(hCatK) reading was recorded for the compound O=C(N[C@H](C(=O)N1C[C@H](Cl)[C@H]2OCC(=O)[C@H]21)C1CCCCC1)c1ccc(-c2ccc(Cl)nc2)s1 [Example 17] ?
Given back: 21.7

Asked: Which Selectivity Ki(hCatS)/Ki(hCatK) reading was recorded for the compound Cc1nccc(-c2ccc(C(=O)N[C@H](C(=O)N3C[C@H](Cl)[C@H]4OCC(=O)[C@H]43)C3CCCCC3)s2)n1 [Example 29] ?
Given back: 26.4

Asked: Which Selectivity Ki(hCatS)/Ki(hCatK) reading was recorded for the compound O=C(N[C@H](C(=O)N1C[C@H](Cl)[C@H]2OCC(=O)[C@H]21)C1CCCCC1)c1ncc(-c2ccncc2F)s1 [Example 50] ?
Given back: 66.6

Asked: Which Selectivity Ki(hCatS)/Ki(hCatK) reading was recorded for the compound O=C(N[C@H](C(=O)N1C[C@H](Cl)[C@H]2OCC(=O)[C@H]21)C1CCCCC1)c1ncc(-c2ccnc(C3CC3)c2)s1 [Example 82] ?
Given back: 14.3

Asked: Which Selectivity Ki(hCatS)/Ki(hCatK) reading was recorded for the compound O=C(N[C@H](C(=O)N1C[C@H](Cl)[C@H]2OCC(=O)[C@H]21)C1CCCCC1)c1ccc(-c2ccc[n+]([O-])n2)s1 [Example 79] ?
Given back: 2.7

Asked: Which Selectivity Ki(hCatS)/Ki(hCatK) reading was recorded for the compound O=C(N[C@H](C(=O)N1C[C@H](Cl)[C@H]2OCC(=O)[C@H]21)C1CCCCC1)c1ccc(-c2ccnnc2)o1 [Example 19] ?
Given back: 0.8

---

# study.target: human cathepsin S (CatS) (Homo sapiens (Human))
# assay.remarks: CatS functional enzyme assay
# Assay type: biochemical
# applied.conditions: recombinant human CatS, substrate Z-VVR-AMC 5 μM, pH 6.5; Ki by Cheng Prusoff equation; read-out: hCatS, Ki
Assign pKi to each entry below.
Would you please state pKi, meaning minus log10 of the concentration in mol/L, as a bare number?

Asked: Which pKi reading was recorded for the molecule Cc1ncccc1-c1ccc(C(=O)N[C@H](C(=O)N2C[C@H](Cl)[C@H]3OCC(=O)[C@H]32)C2CCCCC2)s1 [Example 83] ?
Given back: 6.53

Asked: Which pKi reading was recorded for the molecule CS(=O)(=O)c1cnnc(-c2ccc(C(=O)N[C@H](C(=O)N3C[C@H](Cl)[C@H]4OCC(=O)[C@H]43)C3CCCCC3)s2)c1 [Example 78] ?
Given back: 7.80

Asked: Which pKi reading was recorded for the molecule O=C(N[C@H](C(=O)N1C[C@H](Cl)[C@H]2OCC(=O)[C@H]21)C1CCCCC1)c1ccc(-c2ccnc(C3CC3)c2)s1 [Example 66] ?
Given back: 7.47

Asked: Which pKi reading was recorded for the molecule N#Cc1cncc(-c2cnc(C(=O)N[C@H](C(=O)N3C[C@H](Cl)[C@H]4OCC(=O)[C@H]43)C3CCCCC3)s2)c1 [Example 43] ?
Given back: 6.11

Asked: Which pKi reading was recorded for the molecule O=C(N[C@H](C(=O)N1C[C@H](Cl)[C@H]2OCC(=O)[C@H]21)C1CCCCC1)c1ccc(-c2cncnc2)o1 [Example 11] ?
Given back: 7.00

Asked: Which pKi reading was recorded for the molecule O=C(N[C@H](C(=O)N1C[C@H](Cl)[C@H]2OCC(=O)[C@H]21)C1CCCCC1)c1ncc(-c2cnc(C(F)(F)F)nc2)s1 [Example 67] ?
Given back: 6.70

Asked: Which pKi reading was recorded for the molecule O=C(N[C@H](C(=O)N1C[C@H](Cl)[C@H]2OCC(=O)[C@H]21)C1CCCCC1)c1ncc(-c2ccncc2F)s1 [Example 50] ?
Given back: 6.13

Asked: Which pKi reading was recorded for the molecule O=C(N[C@H](C(=O)N1C[C@H](Cl)[C@H]2OCC(=O)[C@H]21)C1CCCCC1)c1ncc(-c2ccc(C3CC3)nc2)s1 [Example 64] ?
Given back: 6.21

Asked: Which pKi reading was recorded for the molecule Cc1ccc(-c2cnc(C(=O)N[C@H](C(=O)N3C[C@H](Cl)[C@H]4OCC(=O)[C@H]43)C3CCCCC3)s2)cn1 [Example 42] ?
Given back: 6.45

Asked: Which pKi reading was recorded for the molecule CCc1cc(-c2ccc(C(=O)N[C@H](C(=O)N3C[C@H](Cl)[C@H]4OCC(=O)[C@H]43)C3CCCCC3)s2)ccn1 [Example 86] ?
Given back: 7.62

Asked: Which pKi reading was recorded for the molecule O=C(N[C@H](C(=O)N1C[C@H](Cl)[C@H]2OCC(=O)[C@H]21)C1CCCCC1)c1ccc(-c2cnc(C3CC3)nc2)s1 [Example 55] ?
Given back: 7.15

Asked: Which pKi reading was recorded for the molecule O=C(N[C@H](C(=O)N1C[C@H](Cl)[C@H]2OCC(=O)[C@H]21)C1CCCCC1)c1sc(-c2cncnc2)cc1F [Example 53] ?
Given back: 6.52

Asked: Which pKi reading was recorded for the molecule CCc1cc(-c2cnc(C(=O)N[C@H](C(=O)N3C[C@H](Cl)[C@H]4OCC(=O)[C@H]43)C3CCCCC3)s2)ccn1 [Example 87] ?
Given back: 7.23

Asked: Which pKi reading was recorded for the molecule O=C(N[C@H](C(=O)N1C[C@H](Cl)[C@H]2OCC(=O)[C@H]21)C1CCCCC1)c1ccc(-c2ncccn2)s1 [Example 9] ?
Given back: 5.83

Asked: Which pKi reading was recorded for the molecule Cc1nnccc1-c1ccc(C(=O)N[C@H](C(=O)N2C[C@H](Cl)[C@H]3OCC(=O)[C@H]32)C2CCCCC2)s1 [Example 58] ?
Given back: 7.29

Asked: Which pKi reading was recorded for the molecule Cc1cnncc1-c1ccc(C(=O)N[C@H](C(=O)N2C[C@H](Cl)[C@H]3OCC(=O)[C@H]32)C2CCCCC2)s1 [Example 90] ?
Given back: 7.14

Asked: Which pKi reading was recorded for the molecule O=C(N[C@H](C(=O)N1C[C@H](Cl)[C@H]2OCC(=O)[C@H]21)C1CCCCC1)c1ccc(-c2ccc(C3CC3)nc2)s1 [Example 63] ?
Given back: 6.28

Asked: Which pKi reading was recorded for the molecule O=C(N[C@H](C(=O)N1C[C@H](Cl)[C@H]2OCC(=O)[C@H]21)C1CCCCC1)c1ncc(-c2cccnc2)s1 [Example 45] ?
Given back: 6.58

Asked: Which pKi reading was recorded for the molecule O=C(N[C@H](C(=O)N1C[C@H](Cl)[C@H]2OCC(=O)[C@H]21)C1CCCCC1)c1cccc(-c2cn[nH]c2)c1 [Example C1, reference compound] ?
Given back: 6.84

Asked: Which pKi reading was recorded for the molecule O=C(N[C@H](C(=O)N1C[C@H](Cl)[C@H]2OCC(=O)[C@H]21)C1CCCCC1)c1ncc(-c2cncnc2)s1 [Example 24] ?
Given back: 7.21

Asked: Which pKi reading was recorded for the molecule O=C(N[C@H](C(=O)N1C[C@H](Cl)[C@H]2OCC(=O)[C@H]21)C1CCCCC1)c1ccc(-c2ncncc2F)s1 [Example 36] ?
Given back: 6.33

Asked: Which pKi reading was recorded for the molecule O=C(N[C@H](C(=O)N1C[C@H](Cl)[C@H]2OCC(=O)[C@H]21)C1CCCCC1)c1ncc(-c2ccnnc2)s1 [Example 18] ?
Given back: 7.43

Asked: Which pKi reading was recorded for the molecule O=C(N[C@H](C(=O)N1C[C@H](Cl)[C@H]2OCC(=O)[C@H]21)C1CCCCC1)c1ncc(-c2ccncc2)s1 [Example 49] ?
Given back: 6.42

Asked: Which pKi reading was recorded for the molecule O=C(N[C@H](C(=O)N1C[C@H](Cl)[C@H]2OCC(=O)[C@H]21)C1CCCCC1)c1ccc(-c2ccc(F)nn2)s1 [Example 38] ?
Given back: 6.67
